Every entry's value here was drawn from ChEMBL document CHEMBL1157464.

system: Candida albicans; assay: Antifungal activity against fluconazole-sensitive Candida albicans Fe40 at 35 degC after 48 hrs by broth microdilution test; type: functional
For each of the compounds below, state its MIC.
In your response, the unit should come after the numeric value.

IN: Please indicate MIC recorded for Cc1ccc(C(CCn2ccnc2)Oc2ccc(Cl)cc2)cc1 (stereo not drawn)
OUT: 2 µg/mL

IN: For the compound Cc1ccc(OC(CCn2ccnc2)c2ccc(F)cc2)cc1 (stereo not drawn) , give its reported MIC.
OUT: 4 µg/mL

IN: Give me measured MIC, please, for this compound: Clc1ccc(OC(CCn2ccnc2)c2ccccc2)cc1 (stereo not drawn)
OUT: 2 µg/mL

IN: Supply reported MIC belonging to this compound: Fc1ccc(C(CCn2ccnc2)Oc2ccc(Cl)cc2Cl)cc1 (stereo not drawn)
OUT: 2 µg/mL

IN: Quote MIC reported for Fc1ccc(C(CCn2ccnc2)Oc2cc(Cl)cc(Cl)c2)cc1 (stereo not drawn) please.
OUT: 8 µg/mL

IN: Quote MIC reported for Clc1ccc(COC(Cn2ccnc2)c2ccc(Cl)cc2Cl)c(Cl)c1 (stereo not drawn) please.
OUT: 4 µg/mL

IN: Assign MIC to the following record: Cc1ccc(OC(CCn2ccnc2)c2ccc(C)cc2)cc1 (stereo not drawn)
OUT: 4 µg/mL

IN: Please give the documented MIC of OC(Cn1cncn1)(Cn1cncn1)c1ccc(F)cc1F
OUT: 0.25 µg/mL
